property: melting point

(Q) Find the recorded melting point belonging to CCCCNC(=O)NS(=O)(=O)c1ccccc1NC(=O)c1cccc(OCc2ccccc2)c1 and report it.
(A) 177 to 178 °C

(Q) Now the molecule CCCCCCCCCC(=O)NS(=O)(=O)c1ccccc1NC(=O)c1cccc(OCc2ccc(OC)cc2)c1 [Example 25]
(A) 148 to 149 °C

(Q) Now the molecule CCCCCC(=O)NS(=O)(=O)c1ccccc1NC(=O)c1cccc(OCc2ccc(C(C)(C)C)cc2)c1 [Example 30]
(A) 163 to 164 °C

(Q) Now the molecule CC(C)=CC(=O)NS(=O)(=O)c1ccccc1NC(=O)c1ccc(C#Cc2ccccc2)cc1 [Example 42]
(A) 187 to 188 °C

(Q) Now the molecule CC(=O)NS(=O)(=O)c1ccccc1NC(=O)c1cccc(OCc2ccc(C(F)(F)F)cc2)c1 [Example 32]
(A) 164 to 165 °C

(Q) Now the molecule CCCCCCCCCC(=O)NS(=O)(=O)c1ccccc1NC(=O)c1cccc(OCc2ccc(C(C)(C)C)cc2)c1 [Example 31]
(A) 132 to 133 °C

(Q) Now the molecule CCCCCCCCCC(=O)NS(=O)(=O)c1ccccc1NC(=O)c1cccc(OCCCCCCC)c1 [Example 37]
(A) 172 to 174 °C

(Q) Now the molecule CCCCCCCCCC(=O)NS(=O)(=O)c1ccccc1NC(=O)c1cccc(OCc2ccc([N+](=O)[O-])cc2)c1 [Example 22]
(A) 145 to 148 °C

(Q) Now the molecule CCCCCCCCCC(=O)NS(=O)(=O)c1ccccc1NC(=O)c1ccc(C#Cc2ccccc2)cc1 [Example 40]
(A) 155 to 156 °C

(Q) Now the molecule CCCCCC(=O)NS(=O)(=O)c1ccccc1NC(=O)c1cccc(OCc2ccc(OC)cc2)c1 [Example 24]
(A) 154 to 157 °C

(Q) Now the molecule CCCCCCCCCC(=O)NS(=O)(=O)c1ccccc1NC(=O)c1cccc(OCc2ccc(C(F)(F)F)cc2)c1 [Example 34]
(A) 164 °C

(Q) Now the molecule O=C(NS(=O)(=O)c1ccccc1NC(=O)c1cccc(OCc2ccccc2)c1)Oc1ccccc1
(A) 163 to 164 °C

(Q) Now the molecule CCCCCCCOc1cccc(C(=O)Nc2ccccc2S(=O)(=O)NC(C)=O)c1 [Example 35]
(A) 194 to 195 °C

(Q) Now the molecule CCCCCC(=O)NS(=O)(=O)c1ccccc1NC(=O)c1cccc(OCc2ccc(C(F)(F)F)cc2)c1 [Example 33]
(A) 142 to 143 °C

(Q) Now the molecule CC(C)(C)C(=O)NS(=O)(=O)c1ccccc1NC(=O)c1cccc(OCc2ccc(C(C)(C)C)cc2)c1 [Example 12]
(A) 193 to 194 °C

(Q) Now the molecule CCCCCCCCCC(=O)NS(=O)(=O)c1ccccc1NC(=O)c1cccc(OCc2ccc(Cl)cc2)c1 [Example 19]
(A) 159 to 161 °C
